Origin of measurements: PubChem BioAssay (NCI)

Listed here are molecules together with their documented TGI.
System: HCT-116 colon
Assay: NCI tumour cell line growth inhibition, 48 h

# count of solved cases: 9
[
  {
    "molecule": "CC(=O)N=C1N(/C=C2\\C(=O)Oc3ccccc3C2=O)C(=O)/C(=C/c2ccc(OC(C)=O)cc2)N1C",
    "measurement": "> 100 µM"
  },
  {
    "molecule": "CCOC(=O)N1CCN(c2nc(Nc3cc(C)[nH]n3)c3ccccc3n2)CC1",
    "measurement": "21.3 µM"
  },
  {
    "molecule": "C[Si](C)(OCCS(=O)(=O)O)C1(Cc2cccc3ccccc23)S(=O)(=O)OCCOS1(=O)=O",
    "measurement": "37.8 µM"
  },
  {
    "molecule": "CCOC(=O)C1N(S(=O)(=O)c2ccc(C)cc2)CCC12c1ccccc1N(C(C)=O)C2c1ccc(OC)c(OC)c1 (stereo not given)",
    "measurement": "> 100 µM"
  },
  {
    "molecule": "COCCCNC(=O)C1C(=O)N(CCCOC)C(=O)/C1=N\\N (stereo not given)",
    "measurement": "> 100 µM"
  },
  {
    "molecule": "Cc1ccc(N2Cc3c(ccc4ccccc34)OP2(=O)Oc2ccc(Cl)c(C)c2)cc1 (stereo not given)",
    "measurement": "> 100 µM"
  },
  {
    "molecule": "Cc1cccc2c(=O)c([Se]c3coc4c(C)cccc4c3=O)coc12",
    "measurement": "17.2 µM"
  },
  {
    "molecule": "O=C(/C=C/c1ccc(O)c(O)c1)OCCCc1ccccc1",
    "measurement": "22.4 µM"
  },
  {
    "molecule": "CCOC(=O)c1cc(-c2cc(OC)c(OC)c([N+](=O)[O-])c2)c([N+](=O)[O-])n1C",
    "measurement": "> 10 µM"
  }
]

Ask | Requested field: TGI. Item: `CN(C)CC(C)(C)/C(=N\Nc1ccccc1)c1ccccc1`
Reply | > 100 µM

----------
System: SK-MEL-5 melanoma
Assay: NCI tumour cell line growth inhibition, 48 h; in the data active means GI50 below about 0.43 µM; inactive means the rest
In this exercise, the only acceptable responses are active, inactive

Ask | Recorded test outcome, item `CCN(Cc1cccc(F)c1)c1ccc(CO)c(Cl)c1`
Reply | inactive

----------
Listed here are molecules together with their documented TGI.
Tested on: A549 NSCLC
Assay: NCI tumour cell line growth inhibition, 48 h
Numeric only. Scale: µM

[
  {
    "smiles.str": "C[N-]c1nnnn1C.[Au+].c1ccc([PH+](c2ccccc2)c2ccccc2)cc1",
    "measurement": 68.7
  }
]

Now consider the entry below.
Ask | Requested field: TGI. Item: `Clc1nc(Cl)c2ncn(Cc3cccc(Cn4cnc5c(Cl)nc(Cl)nc54)c3)c2n1`
Reply | 26.3

----------
Listed here are compounds together with their documented TGI.
System: SNB-19 CNS
Assay: NCI tumour cell line growth inhibition, 48 h
Numeric only. Scale: µM

# count of solved cases: 3
[
  {
    "smiles.str": "CCCCCC[N+](C)(C)Cc1ccc(C[N+](C)(C)CCCCCC)cc1",
    "unit.abbrev": "µM",
    "TGI": 67.4
  },
  {
    "smiles.str": "COc1cc(NC(N)=NCCC(C)(C)Oc2ccc(C(F)(F)F)cc2)ncc1C#N",
    "unit.abbrev": "µM",
    "TGI": 3.3
  },
  {
    "smiles.str": "CCCNNC(=O)/C=C/c1ccc(CNCCc2c(C)[nH]c3ccccc23)cc1",
    "unit.abbrev": "µM",
    "TGI": 2.1
  }
]

Now consider the entry below.
Ask | What is its TGI for SNB-19 CNS? Entry: `[Cl][Hg][Cl]`
Reply | 32
